assay.name: chemical genetic growth profiling, strain panel (AID 1159580);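 also: tested at 20 µM; growth read once vehicle control cultures reached saturation at 30 °C; 1 = growth at the plate median or of vehicle wells; lower values mean less growth of the strain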
condition.details: S. cerevisiae deletion strains, growth OD, locus YNR052C, strain pop2, active compounds read low
Screen size: about 5,500 compounds; about 2,000 (36%) were called active. Inconclusive results (about 18%) are left out. Some of the results follow.
Exercise: for every item that follows, state its recorded normalized growth.
Give bare numbers.

C=CC1=C(C)/C(=C/c2[nH]c(Cc3[nH]c(/C=C4\NC(=O)C(C)=C4C=C)c(C)c3CCC(=O)O)c(CCC(=O)O)c2C)NC1=O
1.01
OC/C=C/c1ccc(O)c(O)c1
0.98
COc1ccc(C[C@H](N)C(=O)N[C@@H]2[C@@H](CO)OC(n3cnc4c(N(C)C)ncnc43)[C@@H]2O)cc1 (stereo not given in full)
1.02
CC1=C(/C=C/C(C)=C/C=C/C(C)=C/C=C/C=C(C)/C=C/C=C(C)/C=C/C2=C(C)CCCC2(C)C)C(C)(C)CCC1
1
COc1cc(/C=C/C(=O)O)ccc1O
0.991

Provide each entry's normalized growth from the list below.
1. CCOC(=O)C1=C[C@]2(CC)CCCN3CCc4c(n1c1ccccc41)[C@@H]32
2. CN1CCc2cccc3c2C1Cc1ccc(O)c(O)c1-3 (stereo not given)
3. O=C(O)c1cc(=O)c(O)c2c(O)c(O)ccc2c1

0.979
0.987
1.02

Consider the following items and state reported normalized growth for each.
1. C[C@](N)(Cc1ccc(O)c(O)c1)C(=O)O
2. CC(Cc1ccc(O)c(O)c1)(NN)C(=O)O (stereo not given)

0.991
1.01
